FYI, the data here is from PubChem BioAssay (NCI).

test: NCI Yeast Anticancer Drug Screen. Data for the cln2 rad14 strain (AID 165); details: S. cerevisiae cln2 rad14 strain, at 50.0 µM (retest, dose inferred, filed as 5.0)
This is part of a sample that, as a whole, favours compounds with a hit. Of some 79,000 tested, about 15% had one in any assay. Activity calls are given as the source filed them. Cut-off read from the data, not from the text of the source: active = growth inhibition above about 70%; inactive = the rest.
Return exactly one item of active, inactive

As a guide, the following entries are already answered.
INSERT INTO assay_data (compound, category) VALUES
  ('COc1c(OC)c(C2(O)C(=O)N(C)c3ccccc32)c(OC)c(OC)c1C1(O)C(=O)N(C)c2ccccc21 (stereo unspecified)', 'inactive'),
  ('NC1NCCC(=O)N1CCc1c[nH]c2ccccc12 (stereo unspecified)', 'active'),
  ('CCOC(=O)C(=C=Cc1cccs1)C(=O)c1ccccc1', 'active');

Called result for COc1ccccc1CN1CCCN(Cc2ccccc2OC)C1c1ccccc1F
inactive

Called result for O=C(CSc1nnc(Cc2ccccc2)o1)Nc1ccc(Cl)cc1[N+](=O)[O-]
inactive

Called result for O=C(c1ccc(F)cc1)c1ccc(Cl)cc1Cl
active

Called result for CCCCCCCCCCN
inactive

Called result for Cc1c(C(C)(C)C)cc(C(C)(C)C)c(O)c1CN(C)Cc1c(C)c(C(C)(C)C)cc(C(C)(C)C)c1O
inactive

Called result for CCCCCCCCCCCCOP(=O)(N1CC1(C)C)N1CC1(C)C (stereo unspecified)
active

Called result for Oc1cc(Cl)cc2cc(Cl)cnc12
active

Called result for COc1ccc2c(C)c(N=C=S)c(=O)oc2c1
inactive
